- System: Colon cancer cells (Caco-2)
- assay_comment: MTT anticancer activity, Caco-2
- Assay type: cell-based, human
- cond: selectivity index, Wi-38 versus Caco-2
# note: exactly 2 is not below, so it is rule not met; use rule met for Caco-2 SI strictly under it

## Input Decide: Caco-2 SI of "COc1ccc2nc(N3CCOCC3)c(-c3cc(-c4cccc(O)c4)nc(S)c3C#N)cc2c1" strictly below 2?
## Output rule not met

## Input For N#Cc1c(-c2cc3ccccc3[nH]c2=O)cc(-c2cccc(O)c2)nc1S [14a] , is the recorded Caco-2 SI below the cut-off of 2?
## Output rule not met

## Input Caco-2 SI under 2? Item: COc1ccc(NC(=O)COc2nc(-c3cccc(O)c3)cc(-c3cc4cc(Cl)ccc4nc3N3CCOCC3)c2C#N)cc1 [11f]
## Output rule not met

## Input Is it true that Caco-2 SI reported for N#Cc1c(-c2cc3cc(Cl)ccc3[nH]c2=O)cc(-c2cccc(O)c2)nc1S [14b] is less than 2?
## Output rule met

## Input Field: below-cutoff. Rule: recorded Caco-2 SI strictly less than 2. Subject: "CC(=O)Oc1cccc(-c2cc(-c3cc4ccccc4nc3N3CCOCC3)c(C#N)c(=O)[nH]2)c1"
## Output rule not met

## Input Lab note: Caco-2 SI threshold 2. Does this molecule come in strictly under it? N#Cc1c(-c2cc3cc(Cl)ccc3nc2N2CCOCC2)cc(-c2cccc(O)c2)nc1OCC(=O)Nc1ccc(Cl)cc1 [11e]
## Output rule not met

## Input Confirm or reject: Caco-2 SI of "N#Cc1c(-c2cc3ccccc3nc2N2CCOCC2)cc(-c2cccc(O)c2)nc1OCC(=O)O" lies strictly below 2
## Output rule not met

## Input Please state whether Caco-2 SI is below 2 for "COc1ccc2nc(N3CCCCC3)c(-c3cc(-c4cccc(O)c4)nc(S)c3C#N)cc2c1"
## Output rule not met

## Input is_below(Caco-2 SI, 2) for "N#Cc1c(-c2cc3ccccc3nc2N2CCOCC2)cc(-c2cccc(O)c2)nc1S" ?
## Output rule met

## Input Lab log: compare recorded Caco-2 SI with 2; is it strictly lower for COc1ccc(NC(=O)COc2nc(-c3cccc(O)c3)cc(-c3cc4ccccc4nc3N3CCOCC3)c2C#N)cc1 [11c] ?
## Output rule met

## Input For "N#Cc1c(-c2cc3ccccc3nc2N2CCCCC2)cc(-c2cccc(O)c2)nc1S" , is the recorded Caco-2 SI below the cut-off of 2?
## Output rule not met

## Input Report whether reported Caco-2 SI is lower than 2 (strictly) for "N#Cc1c(-c2cc3ccccc3nc2N2CCCCC2)cc(-c2cccc(O)c2)[nH]c1=O"
## Output rule met

## Input Does this molecule meet the criterion Caco-2 SI < 2? "N#Cc1c(-c2cc3cc(Cl)ccc3nc2N2CCOCC2)cc(-c2cccc(O)c2)nc1OCC(=O)O"
## Output rule not met

## Input Please let me know if N#Cc1c(-c2cc3cc(Cl)ccc3[nH]c2=O)cc(-c2cccc(O)c2)nc1N [15b] shows Caco-2 SI below 2.
## Output rule met

## Input Quick check: does COc1ccc2[nH]c(=O)c(-c3cc(-c4cccc(O)c4)nc(N)c3C#N)cc2c1 [15c] have Caco-2 SI under 2?
## Output rule met

## Input Given COc1ccc2[nH]c(=O)c(-c3cc(-c4cccc(O)c4)[nH]c(=O)c3C#N)cc2c1 [13c] , is recorded Caco-2 SI strictly lower than 2?
## Output rule met

## Input Given "COc1ccc2nc(N3CCOCC3)c(-c3cc(-c4cccc(OC(C)=O)c4)[nH]c(=O)c3C#N)cc2c1" , is recorded Caco-2 SI strictly lower than 2?
## Output rule met

## Input Does "CC(=O)Oc1cccc(-c2cc(-c3cc4cc(Cl)ccc4nc3N3CCOCC3)c(C#N)c(=O)[nH]2)c1" have Caco-2 SI strictly under 2?
## Output rule met
